Assay: Compound is evaluated for acute lethal toxicity by intravenous administration
Assay type: organism-based
Conditions: mouse, in vivo
property: LD50 (mg/kg)
Give bare numbers, in mg/kg.

Need LD50 of COc1cc(NC(C)CCCN)c2ncccc2c1 (stereo unspecified) , thanks.
16

###

Assay: Ratio of LD50 (lethal toxicity in mice) to that of CPD50 (therapeutic efficacy)
Type: organism-based
Settings: mouse, in vivo
property: selectivity ratio
Answers are plain numbers.

Need selectivity ratio of COc1cc(NC(C)CCCN)c2ncccc2c1 (stereo unspecified) , thanks.
1.2
